Tested on: UO-31
Experiment: Antitumor activity against human UO-31 cells assessed as cell growth inhibition at 10 uM incubated for 48 hrs by sulforhodamine B assay
Format: functional
Details: read-out: GI
Reported inhibition of growth at 10 µM by item:

{"smiles repr": "N#Cc1c(-c2ccc(F)cc2)nc2c(/N=N/c3ccc(S(N)(=O)=O)cc3)c(N)nn2c1N", "tested system": "UO-31", "inhibition of growth at 10 µM [%]": 38}
{"smiles repr": "Cc1ccc(-c2nc3c(/N=N/c4ccc(S(N)(=O)=O)cc4)c(N)nn3c(N)c2C#N)cc1", "tested system": "UO-31", "inhibition of growth at 10 µM [%]": 31}
{"smiles repr": "Nc1nn2cc(-c3ccc(Br)cc3)[nH]c2c1/N=N/c1ccc(S(N)(=O)=O)cc1", "tested system": "UO-31", "inhibition of growth at 10 µM [%]": 74}
{"smiles repr": "Nc1nn2cc(-c3ccccc3)[nH]c2c1/N=N/c1ccc(S(N)(=O)=O)cc1", "tested system": "UO-31", "inhibition of growth at 10 µM [%]": 81}
{"smiles repr": "Cc1ccc(-c2cn3nc(N)c(/N=N/c4ccc(S(N)(=O)=O)cc4)c3[nH]2)cc1", "tested system": "UO-31", "inhibition of growth at 10 µM [%]": 77}
